The reported numbers originate from the supplement of paper PMC8728848.

Biological target: Gal(b1-4)GlcNAc(b1-3)[Gal(b1-4)GlcNAc(b1-6)]GalNAc
Assay: glycan array binding signal (z-score within array); higher = stronger binding
Conditions: glycan notation: IUPAC condensed, linker removed
Many of the other results were omitted from the sample, so the strongest signals are more common in it than they were.
Recorded glycan array binding signal (z-score) for the following binders
measured metric: glycan array binding signal (z-score)

INSERT INTO results (binder, measured_metric, experimental_result) VALUES
  ('GSL-I (Griffonia simplicifolia) (protein) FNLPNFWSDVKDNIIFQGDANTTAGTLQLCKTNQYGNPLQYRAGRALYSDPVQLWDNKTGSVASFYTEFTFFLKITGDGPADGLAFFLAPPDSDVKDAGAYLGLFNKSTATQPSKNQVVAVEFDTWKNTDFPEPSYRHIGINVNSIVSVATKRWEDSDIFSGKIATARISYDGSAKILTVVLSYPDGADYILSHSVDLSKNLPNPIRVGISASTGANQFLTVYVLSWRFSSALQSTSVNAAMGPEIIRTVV', 'glycan array binding signal (z-score)', -0.312),
  ('ECA (Erythrina cristagalli), P83410 (protein) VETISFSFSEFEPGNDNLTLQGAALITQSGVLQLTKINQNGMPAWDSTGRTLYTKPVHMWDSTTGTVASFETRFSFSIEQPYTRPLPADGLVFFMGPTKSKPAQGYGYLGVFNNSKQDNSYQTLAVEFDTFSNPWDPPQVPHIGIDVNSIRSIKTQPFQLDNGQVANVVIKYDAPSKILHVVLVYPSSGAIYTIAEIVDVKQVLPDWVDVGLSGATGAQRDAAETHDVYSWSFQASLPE', 'glycan array binding signal (z-score)', 5.59),
  ('NcCVNHO (Neurospora crassa), Q7S6U4 (protein) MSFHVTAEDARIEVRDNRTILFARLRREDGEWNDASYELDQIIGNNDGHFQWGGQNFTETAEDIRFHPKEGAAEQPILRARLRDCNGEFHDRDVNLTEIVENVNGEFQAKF', 'glycan array binding signal (z-score)', -0.246),
  ('OVGAL11 (Ovis aries), AAF64320 (protein) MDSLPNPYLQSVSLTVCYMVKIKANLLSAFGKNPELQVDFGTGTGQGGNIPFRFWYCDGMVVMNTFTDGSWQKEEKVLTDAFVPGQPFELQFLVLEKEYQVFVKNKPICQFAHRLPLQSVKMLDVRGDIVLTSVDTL', 'glycan array binding signal (z-score)', 0.686),
  ('IRp60B (Homo sapiens), Q9UGN4-3 (protein) MWLPWALLLLWVPAGDHSELSQNPKQAATQSELHYANLELLMWPLQEKPAPPREVEVEYSTVASPREELHYASVVFDSNTNRIAAQRPREEEPDSDYSVIRKT', 'glycan array binding signal (z-score)', 4.42),
  ('CLEC9a (Mus musculus), Q8BRU4 (protein) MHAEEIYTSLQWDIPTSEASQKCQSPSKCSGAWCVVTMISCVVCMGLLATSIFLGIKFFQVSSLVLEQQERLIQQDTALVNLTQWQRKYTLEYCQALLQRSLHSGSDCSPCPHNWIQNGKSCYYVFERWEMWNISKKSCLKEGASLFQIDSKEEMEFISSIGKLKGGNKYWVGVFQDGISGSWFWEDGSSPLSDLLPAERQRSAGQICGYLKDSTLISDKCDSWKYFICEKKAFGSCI', 'glycan array binding signal (z-score)', 1.87);
